Give Plat for every item shown.
- Organism: Rattus norvegicus
- Test: Open TG-GATES - Regimen: Daily Repeat
- Type: toxicity, organism-based, Sprague-Dawley
- Set-up: regimen Daily Repeat, gender Male, age 6 weeks
- Measurement context: in vivo, po, 100 mg/kg, […], tissue Blood, route gavage, dose level Low, time 7 day
Just the number please, in x10_4/uL, no unit attached.

Enquiry: Tell me measured Plat for CCOC(=O)CCC(=O)O[C@H]1[C@H](O[C@@H]2[C@@H](C)[C@H](O[C@H]3C[C@@](C)(OC)[C@@H](O)[C@H](C)O3)[C@@H](C)C(=O)O[C@H](CC)[C@@](C)(O)[C@H](O)[C@@H](C)C(=O)[C@H](C)C[C@@]2(C)O)O[C@H](C)C[C@@H]1N(C)C [ERYTHROMYCIN ETHYLSUCCINATE] please.
Return: 107.9

Enquiry: Tell me measured Plat for COC1=CC(=O)C[C@@H](C)[C@]12Oc1c(Cl)c(OC)cc(OC)c1C2=O [GRISEOFULVIN] please.
Return: 141.9

Enquiry: Tell me measured Plat for NC(N)=Nc1nc(CSCCC(N)=NS(N)(=O)=O)cs1 [FAMOTIDINE] please.
Return: 116.2

Enquiry: Tell me measured Plat for COc1ccc2[nH]c([S+]([O-])Cc3ncc(C)c(OC)c3C)nc2c1 (stereo not given) [OMEPRAZOLE] please.
Return: 132.7

Enquiry: Tell me measured Plat for CCOc1ccc(NC(=O)CC(C)O)cc1 (stereo not given) [BUCETIN] please.
Return: 121.8
